assay: Plasma and liver concentration of the compound after 4 days of administration in the cholestasis rat induced by ANIT; format: in vivo, SD rats; settings: SD, plasma, oral, 10 mg/kg/day, 4 h, 10 mg/kg/d, read-out: Plasma concentration of the compound
Exercise: for every item that follows, state its recorded concentration at 4 h.
Hi! Could you send only the number? It should be in ng/mL, unit omitted.

Look up concentration at 4 h for this compound: O=C(O)c1ccc(-c2nnc(N3[C@@H]4CC[C@H]3C[C@@H](OCc3c(-c5c(Cl)cccc5Cl)noc3C3CC3)C4)o2)cc1 [Example 8]
16.7

Let us now turn to O=C(O)c1ccc(-c2nnc(N3[C@@H]4CC[C@H]3C[C@@H](OCc3c(-c5c(Cl)cccc5Cl)noc3C3CC3)C4)o2)s1 [Example 11]
664

Moving on to the next compound: Cc1cc(C(=O)O)ccc1-c1nnc(N2[C@@H]3CC[C@H]2C[C@@H](OCc2c(-c4c(Cl)cccc4Cl)noc2C2CC2)C3)o1 [Example 14]
250

Let us now turn to O=C(O)c1ccc(-c2nnc(N3[C@@H]4CC[C@H]3C[C@@H](OCc3c(-c5ccccc5OC(F)(F)F)noc3C3CC3)C4)o2)cc1 [Example 22]
567

----------
System: cholestasis rat induced by ANIT
Experiment: Efficacy on the cholestasis rat model induced by 1-naphthyl isothiocyanate (ANIT)
Type: in vivo, SD rats
Design: unit not given here
Settings: serum, 3 mg/kg/d intragastric, 4 days, ANIT rat
Protocol: Animals: SD rats, male, 7 to 8 weeks old, weight: 220 to 240 g, purchased from Beijing Vital River Laboratory Animal Technology Co., Ltd., SPF grade, Certificate No.: SCXK (Beijing) 2016-0011, license issuing administration: Beijing Municipal Commission of Science and Technology. Sample formulation: The compound of the present invention was added to DMSO, and dissolved completely by ultrasound. […]
recorded.metric: GGT
Please reply with the value in numeric form only.

Any idea what GGT was measured for `O=C(O)c1ccc(-c2nnc(N3[C@@H]4CC[C@H]3C[C@@H](OCc3c(-c5ccccc5OC(F)(F)F)noc3C3CC3)C4)o2)c(F)c1` ?
2.3

Also check `O=C(O)c1ccc(-c2nnc(N3[C@@H]4CC[C@H]3C[C@@H](OCc3c(-c5c(Cl)cccc5Cl)noc3C3CC3)C4)o2)s1`
4.9

`Cc1cc(C(=O)O)ccc1-c1nnc(N2[C@@H]3CC[C@H]2C[C@@H](OCc2c(-c4c(Cl)cccc4Cl)noc2C2CC2)C3)o1` ?
4.6

Same thing, different compound: `O=C(O)c1ccc(-c2nnc(N3[C@@H]4CC[C@H]3C[C@@H](OCc3c(-c5ccccc5OC(F)(F)F)noc3C3CC3)C4)o2)cc1F`
1.9

And for `O=C(O)c1cccc(-c2nnc(N3[C@@H]4CC[C@H]3C[C@@H](OCc3c(-c5ccccc5OC(F)(F)F)noc3C3CC3)C4)o2)c1` ?
2.3

Further, for `O=C(O)c1ccc(-c2nnc(N3[C@@H]4CC[C@H]3C[C@@H](OCc3c(-c5ccccc5OC(F)(F)F)noc3C3CC3)C4)o2)cc1` ?
2.7

----------
assay: Plasma and liver concentration of the compound after 4 days of administration in the cholestasis rat induced by ANIT; type: in vivo, SD rats; conditions: SD, liver/plasma, oral, 10 mg/kg/day, 4 h, 10 mg/kg/d
recorded.metric: Kp at 4 h
Lab note: record the figure alone, no unit after it.

Requested field: Kp at 4 h. Item: `O=C(O)c1ccc(-c2nnc(N3[C@@H]4CC[C@H]3C[C@@H](OCc3c(-c5ccccc5OC(F)(F)F)noc3C3CC3)C4)o2)cc1`
19.2

Now the same for `O=C(O)c1ccc(-c2nnc(N3[C@@H]4CC[C@H]3C[C@@H](OCc3c(-c5c(Cl)cccc5Cl)noc3C3CC3)C4)o2)cc1`
105

Lookup `Cc1cc(C(=O)O)ccc1-c1nnc(N2[C@@H]3CC[C@H]2C[C@@H](OCc2c(-c4c(Cl)cccc4Cl)noc2C2CC2)C3)o1`
19.8

And then `O=C(O)c1ccc(-c2nnc(N3[C@@H]4CC[C@H]3C[C@@H](OCc3c(-c5c(Cl)cccc5Cl)noc3C3CC3)C4)o2)s1` , what is it?
15.5

----------
test: Plasma and liver concentration of the compound after 4 days of administration in the cholestasis rat induced by ANIT; assay type: in vivo, SD rats; conditions: SD, plasma, oral, 10 mg/kg/day, 2 h, 10 mg/kg/d, read-out: Plasma concentration of the compound
recorded.metric: concentration at 2 h (ng/mL)
The answer is to be given in ng/mL; state only the numeric part.

Need concentration at 2 h of Cc1cc(C(=O)O)ccc1-c1nnc(N2[C@@H]3CC[C@H]2C[C@@H](OCc2c(-c4c(Cl)cccc4Cl)noc2C2CC2)C3)o1 [Example 14] , thanks.
402

Same question for O=C(O)c1ccc(-c2nnc(N3[C@@H]4CC[C@H]3C[C@@H](OCc3c(-c5ccccc5OC(F)(F)F)noc3C3CC3)C4)o2)cc1 [Example 22] please.
903

Also O=C(O)c1ccc(-c2nnc(N3[C@@H]4CC[C@H]3C[C@@H](OCc3c(-c5c(Cl)cccc5Cl)noc3C3CC3)C4)o2)cc1 [Example 8] , if possible.
50.4

Then this compound: O=C(O)c1ccc(-c2nnc(N3[C@@H]4CC[C@H]3C[C@@H](OCc3c(-c5c(Cl)cccc5Cl)noc3C3CC3)C4)o2)s1 [Example 11]
1160

----------
For each entry below, report its GGT value.
test system: cholestasis rat induced by ANIT; assay: Efficacy on the cholestasis rat model induced by 1-naphthyl isothiocyanate (ANIT); format: in vivo, SD rats; parameters: unit not given here; conditions: serum, 3 mg/kg/d intragastric, 4 days, ANIT rat
Write the value as a bare number.

So what does the record say about GGT for `O=C(O)c1csc(-c2nnc(N3[C@@H]4CC[C@H]3C[C@@H](OCc3c(-c5c(Cl)cccc5Cl)noc3C3CC3)C4)o2)c1` ?
2.8

Then this compound: `O=C(O)c1ccc(-c2nnc(N3[C@@H]4CC[C@H]3C[C@@H](OCc3c(-c5c(Cl)cccc5Cl)noc3C3CC3)C4)o2)cc1`
2.5

What about this compound? `O=C(O)c1ccc(-c2nnc(N3[C@@H]4CC[C@H]3C[C@@H](OCc3c(-c5c(Cl)cccc5Cl)noc3C3CC3)C4)o2)cc1F`
2.2

----------
Tested on: cholestasis rat induced by ANIT
Experiment: Efficacy on the cholestasis rat model induced by 1-naphthyl isothiocyanate (ANIT)
Format: in vivo, SD rats
Design: unit not given here
Conditions: serum, 10 mg/kg/d intragastric, 4 days, ANIT rat
Method: Animals: SD rats, male, 7 to 8 weeks old, weight: 220 to 240 g, purchased from Beijing Vital River Laboratory Animal Technology Co., Ltd., SPF grade, Certificate No.: SCXK (Beijing) 2016-0011, license issuing administration: Beijing Municipal Commission of Science and Technology. Sample formulation: The compound of the present invention was added to DMSO, and dissolved completely by ultrasound. […]
Can you tell me AST for the items I'm about to list?
Give the figure by itself; no unit, no explanation.

Query AST on cholestasis rat induced by ANIT for `O=C(O)c1ccc(-c2nnc(N3[C@@H]4CC[C@H]3C[C@@H](OCc3c(-c5ccccc5OC(F)(F)F)noc3C3CC3)C4)o2)c(F)c1`
189.4

Now the same for `Cc1cc(C(=O)O)ccc1-c1nnc(N2[C@@H]3CC[C@H]2C[C@@H](OCc2c(-c4c(Cl)cccc4Cl)noc2C2CC2)C3)o1`
181.4

Please do the same for `O=C(O)c1ccc(-c2nnc(N3[C@@H]4CC[C@H]3C[C@@H](OCc3c(-c5c(Cl)cccc5Cl)noc3C3CC3)C4)o2)s1` as well.
466.1
